MEASURED ON: CD73 (Homo sapiens (Human))
Sequence (P21589 27-574): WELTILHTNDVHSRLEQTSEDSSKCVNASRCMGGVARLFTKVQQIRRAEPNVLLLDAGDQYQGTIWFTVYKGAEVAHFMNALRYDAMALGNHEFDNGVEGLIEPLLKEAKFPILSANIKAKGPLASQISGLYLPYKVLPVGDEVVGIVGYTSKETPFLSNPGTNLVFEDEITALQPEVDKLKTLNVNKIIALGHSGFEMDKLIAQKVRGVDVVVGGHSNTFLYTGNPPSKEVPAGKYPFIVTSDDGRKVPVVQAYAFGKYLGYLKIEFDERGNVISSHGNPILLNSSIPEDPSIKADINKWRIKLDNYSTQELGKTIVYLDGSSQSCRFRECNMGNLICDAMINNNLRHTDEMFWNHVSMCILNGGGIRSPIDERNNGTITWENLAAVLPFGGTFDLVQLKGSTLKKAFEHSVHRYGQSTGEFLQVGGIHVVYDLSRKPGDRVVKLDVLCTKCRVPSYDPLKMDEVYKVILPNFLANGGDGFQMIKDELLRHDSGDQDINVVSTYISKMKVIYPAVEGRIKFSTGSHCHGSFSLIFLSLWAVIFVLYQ
Type: biochemical
SETUP CONDITIONS: 1 mM NaH2PO4 in enzyme buffer, CD73 0.3 nM, AMP 15 uM
We label by threshold. Values of IC50 strictly beneath 2 nM are T. Values of 2 nM and up are F.

[
  {
    "COMPOUND": "COc1ncc(-c2cc(N3CC(OCC(F)(F)F)C(F)(F)C3)c3nccn3n2)c(OC)n1 (stereo not shown) [Example 203]",
    "ANSWER LABEL": "F"
  },
  {
    "COMPOUND": "O=c1[nH]cc(-c2cc(N3CC4CC4(F)C3)c3nccn3n2)c(=O)[nH]1 (stereo not shown) [Example 355]",
    "ANSWER LABEL": "F"
  },
  {
    "COMPOUND": "O=c1[nH]cc(-c2cc([C@H]3C[C@@H]3c3cc(F)c4cnn(CC(F)(F)F)c4c3)c3nccn3n2)c(=O)[nH]1 [Example 596]",
    "ANSWER LABEL": "T"
  },
  {
    "COMPOUND": "CC1(C)CCN(C(=O)c2ccc([C@H]3C[C@@H]3c3cc(-c4c[nH]c(=O)[nH]c4=O)nn4ccnc34)cc2)C1 (racemic) [Example 307]",
    "ANSWER LABEL": "F"
  },
  {
    "COMPOUND": "O=c1[nH]cc(-c2cc(N3CC(F)(F)C(F)(F)C3)c3nccn3n2)c(=O)[nH]1 [Example 109]",
    "ANSWER LABEL": "F"
  }
]

Qu. Would you kindly verify if IC50 of O=c1[nH]cc(-c2cc(N3CC(F)(C(F)(F)F)C3)c3nccn3n2)c(=O)[nH]1 [Example 397] is strictly less than 2 nM?
Ans. F

Qu. Would you kindly verify if IC50 of O=c1[nH]cc(-c2cc([C@H]3C[C@@H]3c3ncc(C(F)(F)F)cn3)c3nccn3n2)c(=O)[nH]1 (racemic) [Example 377] is strictly less than 2 nM?
Ans. F

Qu. Would you kindly verify if IC50 of O=c1[nH]cc(-c2cc(N3CCCCCC3)c3nccn3n2)c(=O)[nH]1 [Example 483] is strictly less than 2 nM?
Ans. F

Qu. Would you kindly verify if IC50 of N#Cc1ccc([C@H]2C[C@@H]2c2cc(-c3c[nH]c(=O)[nH]c3=O)nn3ccnc23)cc1F (racemic) [Example 115] is strictly less than 2 nM?
Ans. T

Qu. Would you kindly verify if IC50 of O=c1[nH]cc(-c2cc([C@H]3C[C@@H]3c3ccc4c(C(F)(F)F)cn(CC(F)(F)F)c4n3)c3nccn3n2)c(=O)[nH]1 [Example 701] is strictly less than 2 nM?
Ans. F

Qu. Would you kindly verify if IC50 of O=c1[nH]cc(-c2cc([C@H]3C[C@@H]3c3cc4c(cn3)cnn4CC(F)(F)F)c3ncc(F)n3n2)c(=O)[nH]1 [Example 611] is strictly less than 2 nM?
Ans. T

Qu. Would you kindly verify if IC50 of CCOC(=O)c1cn2nc(-c3c[nH]c(=O)[nH]c3=O)cc([C@H]3C[C@@H]3c3ccc(F)cc3)c2n1 (racemic) [Example 172] is strictly less than 2 nM?
Ans. F

Qu. Would you kindly verify if IC50 of O=c1[nH]cc(-c2cc([C@@H]3C[C@H]3c3ccc(Cl)cc3)c3nccn3n2)c(=O)[nH]1 [Example 634] is strictly less than 2 nM?
Ans. F
